Endpoint name: melting point

[[record]]
compound = "COCCCN1CCC(CNC(=O)c2cc(Cl)c(N)n3cc(C)nc23)CC1"
experimental_result = "167 °C"


Continue with the compound presented below.
Briefly, melting point measured for Nc1cccc(-c2n[nH]c3ncnc(Nc4cccc(Cl)c4)c23)c1 : 264 to 266 °C

----------
Endpoint name: melting point

Example compounds with recorded melting point:
[[record]]
compound = "COc1cc2ncnc(N3CCN(C(=S)Nc4cc(O)nc(O)n4)CC3)c2cc1OC"
experimental_result = "283 to 285 °C"

[[record]]
compound = "O=C(NC1CN2CCC1CC2)c1cccc2oc(-c3ccc(Cl)cc3)nc12 (stereo not given)"
experimental_result = "194 to 196 °C"

[[record]]
compound = "COc1cc2c(=O)n(CCO)c3c4cc5c(cc4ncc3c2cc1OC)OCO5"
experimental_result = "285 to 286 °C"

[[record]]
compound = "CC(C)[Si](C)(C)CCSCCCNC(=O)n1cc(F)c(=O)[nH]c1=O"
experimental_result = "122 to 123 °C"


Continue with the compound presented below.
Briefly, melting point measured for CCCn1cc(C(=O)OCC)c(C(=O)OCC)c1N1C(=O)c2ccccc2C1=O : 100 to 101 °C
